study-target: COX-1 enzyme (Homo sapiens, UniProt P23219)
Construct: Human platelets are used; endogenous in cells; host or cells: human platelets
Sequence (P23219 24-599): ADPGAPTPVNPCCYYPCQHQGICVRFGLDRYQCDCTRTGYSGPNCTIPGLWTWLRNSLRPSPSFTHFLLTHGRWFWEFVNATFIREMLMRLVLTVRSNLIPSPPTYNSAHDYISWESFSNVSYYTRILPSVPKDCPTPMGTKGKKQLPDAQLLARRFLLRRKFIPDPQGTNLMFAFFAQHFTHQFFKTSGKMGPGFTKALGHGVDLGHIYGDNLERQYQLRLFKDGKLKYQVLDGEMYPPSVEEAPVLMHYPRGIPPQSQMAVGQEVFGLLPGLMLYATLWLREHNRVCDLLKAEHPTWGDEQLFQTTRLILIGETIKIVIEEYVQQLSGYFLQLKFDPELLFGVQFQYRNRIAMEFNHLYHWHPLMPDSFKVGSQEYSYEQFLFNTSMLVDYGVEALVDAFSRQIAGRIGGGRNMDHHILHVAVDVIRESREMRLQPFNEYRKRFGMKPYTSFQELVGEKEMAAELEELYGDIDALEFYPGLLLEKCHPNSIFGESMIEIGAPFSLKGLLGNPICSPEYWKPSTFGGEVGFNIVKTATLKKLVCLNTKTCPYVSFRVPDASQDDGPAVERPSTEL
assay-method-text: COX-1 inhibition in human platelets (PGE2 formation, EIA)
Type: cell-based
study-conditions: screened at 6 concentrations 0.1-30 μM, 100 μM arachidonic acid
value-type: IC50

// IC50 value for Cl.O=C(O)Cc1ccccc1Nc1ccnc2cc(C(F)(F)F)ccc12 [hydrochloride] : < 0.1 µM

---

study-target: Human recombinant Cyclooxygenase-2 (Homo sapiens)
Sequence (P35354 18-604): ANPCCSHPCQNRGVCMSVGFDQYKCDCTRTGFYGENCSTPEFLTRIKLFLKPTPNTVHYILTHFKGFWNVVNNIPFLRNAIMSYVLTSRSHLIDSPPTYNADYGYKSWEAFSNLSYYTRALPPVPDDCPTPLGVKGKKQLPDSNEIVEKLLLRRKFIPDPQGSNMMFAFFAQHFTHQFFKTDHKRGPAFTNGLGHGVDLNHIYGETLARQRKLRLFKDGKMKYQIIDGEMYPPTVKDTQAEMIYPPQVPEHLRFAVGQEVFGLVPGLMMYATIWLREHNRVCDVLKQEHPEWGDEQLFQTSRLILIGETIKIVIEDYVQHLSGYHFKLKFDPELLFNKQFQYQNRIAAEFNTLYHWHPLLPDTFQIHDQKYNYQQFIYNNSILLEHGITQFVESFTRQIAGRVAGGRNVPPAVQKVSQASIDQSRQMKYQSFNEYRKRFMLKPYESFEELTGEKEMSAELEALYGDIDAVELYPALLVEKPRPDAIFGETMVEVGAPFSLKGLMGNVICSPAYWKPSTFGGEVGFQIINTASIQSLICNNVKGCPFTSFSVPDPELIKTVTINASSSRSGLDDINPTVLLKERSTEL
assay-method-text: COX-2 inhibition, human recombinant enzyme (PGE2 formation, EIA)
study-conditions: human recombinant COX-2 expressed in Sf21 cells; 7 concentrations 0.01-10 μM; 0.3 μM arachidonic acid
Experimental: Compounds can be tested for their ability to inhibit the COX-2 enzyme by the following procedure: Human recombinant Cyclooxygenase-2 expressed in Sf21 cells (Sigma, C-0858) is used. Test compound and/or vehicle is preincubated with 0.11 U cyclooxygenase-2, 1 mM reduced GSH, 500 μM phenol and 1 μM hematin for 15 minutes at 37° C. in Tris-HCl buffer pH 7.7. […] Following centrifugation, substrate conversion to PGE 2 is measured by an Amersham EIA kit. […]
value-type: IC50 (nM)
# unit: nM | format: bare number

The measured IC50 associated with Cl.O=C(O)Cc1ccccc1Nc1ccnc2cc(C(F)(F)F)ccc12 [hydrochloride] reads 61

Recorded values, source patent US20080139611A1.
